Recorded values, source ChEMBL document CHEMBL4316607.

# methodDescription: Total clearance in Sprague-Dawley rat at 0.5 mg/kg, iv dosed via cassette dosing
# Assay type: ADME, organism-based
# conditionContext: in vivo
reportedEndpoint: clearance (mL/min/kg)

Some solved cases for reference:
1) O=C(Nc1ccc2[nH]c(=O)oc2c1)C(=O)N1CCN(Cc2ccc(Cl)cc2)CC1
6.8
2) O=C(Nc1ccc2[nH]c(=O)oc2c1)C(=O)N1CCN(c2ccc(Cl)cc2)CC1
7.2
3) C[C@@H]1CN(c2ccc(Cl)cc2)CCN1C(=O)C(=O)Nc1ccc2[nH]c(=O)oc2c1
5.4

(P) COc1ccc(N2CCN(C(=O)C(=O)Nc3ccc4[nH]c(=O)oc4c3)CC2)cc1F
(Q) O[C@]1(Cc2cc(-c3cn[nH]c3)on2)CC[C@@H](Cc2ccc(C(F)(F)F)cc2)CC1
Two entries are listed, P and Q . Which one carries the higher clearance? Mark your selection by writing its label.
P
(P: 101 mL/min/kg, Q: 4 mL/min/kg)

---

# assayedTarget: Glutamate receptor ionotropic, NMDA 2B (Rattus norvegicus)
# Sequence (Q00960 whole entry): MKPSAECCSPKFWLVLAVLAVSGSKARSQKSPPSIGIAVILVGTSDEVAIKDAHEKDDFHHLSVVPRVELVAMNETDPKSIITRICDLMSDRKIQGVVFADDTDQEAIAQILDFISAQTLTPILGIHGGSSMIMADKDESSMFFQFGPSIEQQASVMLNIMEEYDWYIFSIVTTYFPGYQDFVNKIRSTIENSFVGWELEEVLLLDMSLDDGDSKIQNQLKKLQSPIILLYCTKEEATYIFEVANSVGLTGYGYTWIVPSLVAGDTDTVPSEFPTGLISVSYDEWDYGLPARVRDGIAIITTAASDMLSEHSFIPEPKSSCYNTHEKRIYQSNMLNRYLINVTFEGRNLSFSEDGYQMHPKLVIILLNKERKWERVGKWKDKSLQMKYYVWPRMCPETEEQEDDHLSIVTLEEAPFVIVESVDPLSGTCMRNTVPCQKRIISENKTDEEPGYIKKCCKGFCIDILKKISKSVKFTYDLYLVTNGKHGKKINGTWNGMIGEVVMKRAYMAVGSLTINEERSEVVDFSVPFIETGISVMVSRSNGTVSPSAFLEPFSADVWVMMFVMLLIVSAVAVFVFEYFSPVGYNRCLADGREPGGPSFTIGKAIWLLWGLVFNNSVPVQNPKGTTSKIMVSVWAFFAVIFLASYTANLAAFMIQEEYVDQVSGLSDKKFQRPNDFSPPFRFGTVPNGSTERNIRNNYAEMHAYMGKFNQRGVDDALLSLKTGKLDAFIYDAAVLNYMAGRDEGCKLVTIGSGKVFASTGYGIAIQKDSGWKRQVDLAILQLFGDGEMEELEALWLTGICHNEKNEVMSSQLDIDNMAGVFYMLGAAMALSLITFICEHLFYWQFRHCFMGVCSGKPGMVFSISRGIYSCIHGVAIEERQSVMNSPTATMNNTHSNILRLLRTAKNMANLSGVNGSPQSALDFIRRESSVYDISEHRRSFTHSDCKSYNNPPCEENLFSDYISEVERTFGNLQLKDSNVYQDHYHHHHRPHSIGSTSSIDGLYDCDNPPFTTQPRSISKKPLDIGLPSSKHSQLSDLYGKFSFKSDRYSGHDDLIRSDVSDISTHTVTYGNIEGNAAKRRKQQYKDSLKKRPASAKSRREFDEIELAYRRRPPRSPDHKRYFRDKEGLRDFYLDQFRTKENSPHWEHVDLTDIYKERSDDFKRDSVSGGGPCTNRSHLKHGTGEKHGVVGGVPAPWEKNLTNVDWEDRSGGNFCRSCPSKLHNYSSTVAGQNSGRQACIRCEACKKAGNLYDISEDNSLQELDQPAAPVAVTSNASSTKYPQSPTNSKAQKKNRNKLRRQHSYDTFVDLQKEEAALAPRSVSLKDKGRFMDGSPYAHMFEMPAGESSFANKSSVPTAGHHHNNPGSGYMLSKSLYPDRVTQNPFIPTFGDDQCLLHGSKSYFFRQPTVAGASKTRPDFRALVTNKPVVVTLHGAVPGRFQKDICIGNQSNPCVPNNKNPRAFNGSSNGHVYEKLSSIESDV
# methodDescription: Displacement of [3H]-ifenprodil from NR2B receptor in rat brain cerebral cortex membranes incubated for 120 mins by liquid scintillation counting method
reportedEndpoint: IC50 (nM)

As a guide, the following entries are already answered.
1. O=C(Nc1ccc2[nH]c(=O)oc2c1)C(=O)N1CCN(c2ccc(Cl)cc2)CC1
15.8
2. C[C@@H]1CN(C(=O)C(=O)Nc2ccc3[nH]c(=O)oc3c2)CCN1c1ccc(Cl)cc1
63.1
3. O=C(c1cc(-c2ccc(=O)[nH]c2)on1)N1CCC(Cc2ccccc2)CC1
63.1

(a) O=C(c1cc(-c2cc[nH]n2)on1)N1CCC(Cc2ccc(Cl)cc2)CC1
(b) O=C(Nc1ccc2[nH]c(=O)oc2c1)C(=O)N1CCN(c2cc(F)cc(F)c2)CC1
Hi, I'm comparing two records. Which one has the lower IC50, a or b ? Give the label under which the chosen entry appears.
a

---

# methodDescription: Total clearance in Sprague-Dawley rat at 0.5 mg/kg, iv dosed via cassette dosing
# Format: ADME, organism-based
# conditionContext: in vivo
reportedEndpoint: clearance (mL/min/kg)

Reference set (3 entries):
1) C[C@@H]1CN(c2ccc(F)c(F)c2)CCN1C(=O)C(=O)Nc1ccc2[nH]c(=O)oc2c1
5.6
2) O=C(Nc1ccc2[nH]c(=O)oc2c1)C(=O)N1CCN(c2ccc(C(F)(F)F)c(F)c2)CC1
5.6
3) O=C(c1cc(-c2cc[nH]n2)on1)N1CCC(Cc2ccccc2)CC1
71.6

(I) O=C(c1cc(-c2ccc(=O)[nH]c2)on1)N1CCC(Cc2ccccc2)CC1
(II) O=C(c1cc(-c2cc[nH]n2)on1)N1CCC(Cc2ccc(Cl)cc2)CC1
I would appreciate it if you could say which entry, I or II , has the lower clearance value. # answer = label of selected item
I

(A) C[C@@H]1CN(C(=O)C(=O)Nc2ccc3[nH]c(=O)oc3c2)CCN1c1ccc(Cl)cc1
(B) C[C@@H]1CN(c2ccc(Cl)c(F)c2)CCN1C(=O)C(=O)Nc1ccc2[nH]c(=O)oc2c1
(C) O=C(Nc1ccc2[nH]c(=O)oc2c1)C(=O)N1CCN(c2ccc(F)c(F)c2)CC1
Rank descending by clearance. Please respond with the labels ordered as the question requires.
A, C, B
